Molecular target: human PD-L1 (human) (UniProt Q9NZQ7)
Sequence (Q9NZQ7 19-290): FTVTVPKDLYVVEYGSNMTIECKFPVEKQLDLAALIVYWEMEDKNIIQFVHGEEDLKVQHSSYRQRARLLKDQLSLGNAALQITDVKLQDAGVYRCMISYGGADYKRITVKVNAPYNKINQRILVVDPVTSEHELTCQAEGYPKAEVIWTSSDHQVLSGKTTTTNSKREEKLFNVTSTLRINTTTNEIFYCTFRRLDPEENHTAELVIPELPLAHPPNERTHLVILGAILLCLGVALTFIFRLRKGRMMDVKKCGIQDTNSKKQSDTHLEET
Assay: flow cytometry, CHO cells expressing huPD-L1
Field: MFI at 33.3 nM. Provide a value for each of the binders that follow.
One number for each entry, in MFI.

# Binder, Measurement Units, MFI at 33.3 nM
records = [
    ("variant CD80 IgV-Fc Q33L/E35D/M47L/A71G/F92S (Fc fusion) VIHVTKEVKEVATLSCGHNVSVEELAQTRIYWLKDKKMVLTMMSGDLNIWPEYKNRTIFDITNNLSIVILGLRPSDEGTYECVVLKYEKDASKREHLAEVTLSVKAD", "MFI", 28000),
]

Entry variant CD80 IgV-Fc E35D/M47I/E77A/L85Q/R94W (Fc fusion) VIHVTKEVKEVATLSCGHNVSVEELAQTRIYWQKDKKMVLTMMSGDINIWPEYKNRTIFDITNNLSIVILALRPSDAGTYECVVQKYEKDAFKWEHLAEVTLSVKAD : reported MFI at 33.3 nM = ?
64500
